Recorded values, source ChEMBL document CHEMBL1765020.

EXPERIMENTAL PROTOCOL: Displacement of [125I]IMPY from amyloid beta (1 to 42) aggregate after 2 hrs by gamma counting
MEASUREMENT LABEL: log10(Ki) (log10 of the value in nM)
Lab note - Ki converted to log10 from values in nM.

Lab book: log10(Ki) of CN(C)c1ccc(/C=C/C(=O)/C=C/c2ccccn2)cc1 noted as 1.36

Lab book: log10(Ki) of CN(C)c1ccc(/C=C/C(=O)/C=C/c2ccc(Br)s2)cc1 noted as 0.58

Lab book: log10(Ki) of CN(C)c1ccc(/C=C/C(=O)/C=C/c2ccc(C(=O)O)cc2)cc1 noted as 1.89

Lab book: log10(Ki) of COc1ccc(/C=C/C(=O)/C=C/c2ccc(OC)cc2)cc1 noted as 0.81

Lab book: log10(Ki) of CN(C)c1ccc(/C=C/C(=O)/C=C/c2cccc([N+](=O)[O-])c2)cc1 noted as 0.60

Lab book: log10(Ki) of CN(C)c1ccc(/C=C/C(=O)/C=C/c2cccc(F)c2)cc1 noted as 0.08

Lab book: log10(Ki) of COc1cc(/C=C/C(=O)/C=C/c2ccc(N(C)C)cc2)cc(OC)c1OC noted as 0.72

Lab book: log10(Ki) of CN(C)c1ccc(/C=C/C(=O)/C=C/c2ccc(N(C)C)cc2)cc1 noted as 0.43

Lab book: log10(Ki) of CN(C)c1ccc(/C=C/C(=O)/C=C/c2c(Cl)cccc2Cl)cc1 noted as 1.27

Lab book: log10(Ki) of CN(C)c1ccc(/C=C/C(=O)/C=C/c2ccc(N(c3ccccc3)c3ccccc3)cc2)cc1 noted as 2.12
